Tested on: HCV replicon (HCV 1b-377-neo replicon cells)
ASSAY_REMARKS: HCV replicon cell line FRET assay
Format: cell-based
ASSAY_CONDITIONS: Hepatitis C virus; HCV replicon cell line, FRET assay; read-out: Replicon Inhibition Range EC50
pEC50: −log10 of the molar value.

{"COMPOUND": "Cc1cnc(CN2C(=O)C(c3ccc(NC(=O)[C@H](C)NC(=O)OCc4ccccc4)cc3)S/C2=N\\c2cccc(F)c2)cn1 (stereo partly shown)", "pEC50": "> 7.00"}
{"COMPOUND": "O=C(Nc1ccc(C2S/C(=N\\c3cccc(F)c3)N(Cc3ccco3)C2=O)cc1)[C@@H]1CCCN1C(=O)COc1ccccc1 (stereo partly shown)", "pEC50": "6.00 to 7.00"}
{"COMPOUND": "O=C(Nc1ccc(C2S/C(=N\\c3cccc(F)c3)N(Cc3ccccn3)C2=O)cc1)[C@@H]1CCCN1C(=O)Cc1ccccc1 (stereo partly shown)", "pEC50": "> 7.00"}
{"COMPOUND": "C[C@H](NC(=O)OCc1ccccc1)C(=O)Nc1ccc(C2S/C(=N\\c3ccc(N4CCOCC4)cc3)N(Cc3cccnc3)C2=O)cc1 (stereo partly shown)", "pEC50": "6.00 to 7.00"}
{"COMPOUND": "C[C@H](NC(=O)OCc1ccccc1)C(=O)Nc1ccc(C2S/C(=N\\Cc3ccccn3)N(C)C2=O)cc1 (stereo partly shown)", "pEC50": "5.30 to 6.00"}
{"COMPOUND": "COc1ccc(CC(=O)N2CCC[C@H]2C(=O)Nc2ccc(C3S/C(=N\\c4ccc(N5CCOCC5)cc4)N(Cc4ccccn4)C3=O)cc2)cc1 (stereo partly shown)", "pEC50": "6.00 to 7.00"}
{"COMPOUND": "O=C(Nc1ccc(C2S/C(=N\\c3cccc(F)c3)N(Cc3ccco3)C2=O)cc1)[C@@H]1CCCN1C(=O)Cc1ccncc1 (stereo partly shown)", "pEC50": "6.00 to 7.00"}
{"COMPOUND": "O=C(Nc1ccc(C2S/C(=N\\c3ccc(N4CCOCC4)cc3)N(Cc3ccccn3)C2=O)cc1)[C@@H]1CCCN1C(=O)OCc1ccccc1 (stereo partly shown)", "pEC50": "> 7.00"}
{"COMPOUND": "O=C(Nc1ccc(C2S/C(=N\\c3ccc(N4CCOCC4)cc3)N(Cc3ccccn3)C2=O)cc1)[C@@H]1CCCN1C(=O)Cc1ccccc1Cl (stereo partly shown)", "pEC50": "> 7.00"}
{"COMPOUND": "O=C(Nc1ccc(C2S/C(=N\\c3ccc(N4CCOCC4)cc3)N(c3ccccn3)C2=O)cc1)[C@@H]1CCCN1C(=O)OCc1ccccc1 (stereo partly shown)", "pEC50": "> 7.00"}
{"COMPOUND": "O=C(Nc1ccc(C2S/C(=N\\c3cccc(F)c3)N(CCOc3ccccc3)C2=O)cc1)[C@@H]1CCCN1C(=O)OCc1ccccc1 (stereo partly shown)", "pEC50": "5.30 to 6.00"}
{"COMPOUND": "CO[C@@H](C(=O)N1CCC[C@H]1C(=O)Nc1ccc(C2S/C(=N\\c3ccc(N4CCOCC4)cc3)N(Cc3ccccn3)C2=O)cc1)c1ccccc1 (stereo partly shown)", "pEC50": "> 7.00"}
{"COMPOUND": "O=C(C(=O)N1CCC[C@H]1C(=O)Nc1ccc(C2S/C(=N\\c3ccc(N4CCOCC4)cc3)N(Cc3ccccn3)C2=O)cc1)c1ccccc1 (stereo partly shown)", "pEC50": "> 7.00"}

----------
Test system: HCV replicon (HCV 1b-377-neo replicon cells)
ASSAY_REMARKS: HCV replicon cell line FRET assay
Assay type: cell-based
ASSAY_CONDITIONS: Hepatitis C virus; HCV replicon cell line, FRET assay; read-out: Replicon Inhibition Range EC50
pEC50: −log10 of the molar value.
Reported pEC50 by item:
METRIC: pEC50

{"MOLECULE": "CCc1cccc(/N=C2\\SC(c3ccc(NC(=O)[C@H](C)NC(=O)OCc4ccccc4)cc3)C(=O)N2Cc2ccco2)c1 (stereo partly shown) [Compound 37]", "TARGET_DESC": "HCV replicon (HCV 1b-377-neo replicon cells)", "OBSERVED_RESULT": "5.30 to 6.00"}
{"MOLECULE": "O=C(Nc1ccc(C2S/C(=N\\c3ccc(N4CCOCC4)cc3)N(Cc3ccccn3)C2=O)cc1)[C@@H]1CCCN1C(=O)NCc1ccccc1 (stereo partly shown) [Compound 135]", "TARGET_DESC": "HCV replicon (HCV 1b-377-neo replicon cells)", "OBSERVED_RESULT": "> 7.00"}
{"MOLECULE": "COc1ccc(/N=C2\\SC(c3ccc(NC(=O)[C@@H]4CCCN4C(=O)OCc4ccccc4)cc3)C(=O)N2Cc2ccco2)cc1F (stereo partly shown) [Compound 65]", "TARGET_DESC": "HCV replicon (HCV 1b-377-neo replicon cells)", "OBSERVED_RESULT": "> 7.00"}
{"MOLECULE": "C[C@H](NC(=O)Cc1ccccc1)C(=O)Nc1ccc(C2S/C(=N\\c3ccc(N4CCOCC4)cc3)N(Cc3ccccn3)C2=O)cc1 (stereo partly shown) [Compound 99]", "TARGET_DESC": "HCV replicon (HCV 1b-377-neo replicon cells)", "OBSERVED_RESULT": "> 7.00"}
{"MOLECULE": "C[C@H](NC(=O)OCc1ccccc1)C(=O)Nc1ccc(C2S/C(=N\\c3cccnc3)N(Cc3cccc(F)c3)C2=O)cc1 (stereo partly shown) [Compound 76]", "TARGET_DESC": "HCV replicon (HCV 1b-377-neo replicon cells)", "OBSERVED_RESULT": "> 7.00"}
{"MOLECULE": "C/N=C1\\SC(c2ccc(NC(=O)[C@H](C)NC(=O)C(c3ccccc3)c3ccccc3)cc2)C(=O)N1Cc1ccccn1 (stereo partly shown) [Compound 111]", "TARGET_DESC": "HCV replicon (HCV 1b-377-neo replicon cells)", "OBSERVED_RESULT": "> 7.00"}
{"MOLECULE": "CCC(C)c1ccc(/N=C2\\SC(c3ccc(NC(=O)[C@H](C)NC(=O)OCc4ccccc4)cc3)C(=O)N2Cc2ccco2)cc1 (stereo partly shown) [Compound 46]", "TARGET_DESC": "HCV replicon (HCV 1b-377-neo replicon cells)", "OBSERVED_RESULT": "5.30 to 6.00"}
{"MOLECULE": "Cc1ccc(/N=C2\\SC(c3ccc(NC(=O)[C@H](C)NC(=O)OCc4ccccc4)cc3)C(=O)N2Cc2ccco2)c(Cl)c1 (stereo partly shown) [Compound 41]", "TARGET_DESC": "HCV replicon (HCV 1b-377-neo replicon cells)", "OBSERVED_RESULT": "5.30 to 6.00"}
{"MOLECULE": "O=C(Nc1ccc(C2S/C(=N\\c3cccnc3)N(Cc3cccc(F)c3)C2=O)cc1)[C@@H]1CCCN1C(=O)OCc1ccccc1 (stereo partly shown) [Compound 77]", "TARGET_DESC": "HCV replicon (HCV 1b-377-neo replicon cells)", "OBSERVED_RESULT": "> 7.00"}
{"MOLECULE": "C[C@H](NC(=O)OCc1ccccc1)C(=O)Nc1cccc(C2S/C(=N\\c3cccc(F)c3)N(Cc3ccco3)C2=O)c1 (stereo partly shown) [Compound 32]", "TARGET_DESC": "HCV replicon (HCV 1b-377-neo replicon cells)", "OBSERVED_RESULT": "5.30 to 6.00"}
{"MOLECULE": "O=C(Nc1ccc(C2S/C(=N\\c3ccc(F)c(C(F)(F)F)c3)N(Cc3ccco3)C2=O)cc1)[C@@H]1CCCN1C(=O)OCc1ccccc1 (stereo partly shown) [Compound 67]", "TARGET_DESC": "HCV replicon (HCV 1b-377-neo replicon cells)", "OBSERVED_RESULT": "5.30 to 6.00"}
{"MOLECULE": "O=C(Nc1ccc(C2S/C(=N\\c3ccc4c(c3)OCCO4)N(Cc3ccco3)C2=O)cc1)[C@@H]1CCCN1C(=O)OCc1ccccc1 (stereo partly shown) [Compound 63]", "TARGET_DESC": "HCV replicon (HCV 1b-377-neo replicon cells)", "OBSERVED_RESULT": "> 7.00"}
{"MOLECULE": "CO[C@H](C(=O)N1CCC[C@H]1C(=O)Nc1ccc(C2S/C(=N\\c3ccc(N4CCOCC4)cc3)N(Cc3ccccn3)C2=O)cc1)c1ccccc1 (stereo partly shown) [Compound 117]", "TARGET_DESC": "HCV replicon (HCV 1b-377-neo replicon cells)", "OBSERVED_RESULT": "> 7.00"}

----------
System: HCV replicon (HCV 1b-377-neo replicon cells)
ASSAY_REMARKS: HCV replicon cell line FRET assay
Format: cell-based
ASSAY_CONDITIONS: Hepatitis C virus; HCV replicon cell line, FRET assay; read-out: Replicon Inhibition Range EC50

{"COMPOUND": "C[C@H](NC(=O)c1ccccc1)C(=O)Nc1ccc(C2S/C(=N\\c3cccc(F)c3)N(Cc3ccco3)C2=O)cc1 (stereo partly drawn) [Compound 126]", "TARGET_DESC": "HCV replicon (HCV 1b-377-neo replicon cells)", "EC50": "1000 to 5000 nM"}
{"COMPOUND": "N#Cc1cccc(/N=C2\\SC(c3ccc(NC(=O)[C@@H]4CCCN4C(=O)OCc4ccccc4)cc3)C(=O)N2Cc2ccco2)c1 (stereo partly drawn) [Compound 47]", "TARGET_DESC": "HCV replicon (HCV 1b-377-neo replicon cells)", "EC50": "< 100 nM"}
{"COMPOUND": "O=C(Nc1ccc(C2S/C(=N\\c3ccc4c(c3)CCC4)N(Cc3ccco3)C2=O)cc1)[C@@H]1CCCN1C(=O)OCc1ccccc1 (stereo partly drawn) [Compound 38]", "TARGET_DESC": "HCV replicon (HCV 1b-377-neo replicon cells)", "EC50": "100 to 1000 nM"}
{"COMPOUND": "Cc1cnc(CN2C(=O)C(c3ccc(NC(=O)[C@@H]4CCCN4C(=O)OCc4ccccc4)cc3)S/C2=N\\c2ccc(N3CCOCC3)cc2)cn1 (stereo partly drawn) [Compound 70]", "TARGET_DESC": "HCV replicon (HCV 1b-377-neo replicon cells)", "EC50": "< 100 nM"}
{"COMPOUND": "COc1cccc(CN2C(=O)C(c3ccc(NC(=O)[C@@H]4CCCN4C(=O)OCc4ccccc4)cc3)S/C2=N\\c2cccc(F)c2)c1 (stereo partly drawn) [Compound 13]", "TARGET_DESC": "HCV replicon (HCV 1b-377-neo replicon cells)", "EC50": "100 to 1000 nM"}
{"COMPOUND": "CCc1cccc(/N=C2\\SC(c3ccc(NC(=O)[C@@H]4CCCN4C(=O)OCc4ccccc4)cc3)C(=O)N2Cc2ccco2)c1 (stereo partly drawn) [Compound 36]", "TARGET_DESC": "HCV replicon (HCV 1b-377-neo replicon cells)", "EC50": "1000 to 5000 nM"}

Values compiled from patent US20050069522A1.
